- tgt: 5-HT1A receptor (Rattus norvegicus, UniProt P19327)
- Construct: the content of 5-HT1A receptor extracted from rat hippocampi was 5.5 mg/ml; from tissue; host or cells: Wistar rat hippocampus, membrane preparation
- Sequence (P19327 whole entry): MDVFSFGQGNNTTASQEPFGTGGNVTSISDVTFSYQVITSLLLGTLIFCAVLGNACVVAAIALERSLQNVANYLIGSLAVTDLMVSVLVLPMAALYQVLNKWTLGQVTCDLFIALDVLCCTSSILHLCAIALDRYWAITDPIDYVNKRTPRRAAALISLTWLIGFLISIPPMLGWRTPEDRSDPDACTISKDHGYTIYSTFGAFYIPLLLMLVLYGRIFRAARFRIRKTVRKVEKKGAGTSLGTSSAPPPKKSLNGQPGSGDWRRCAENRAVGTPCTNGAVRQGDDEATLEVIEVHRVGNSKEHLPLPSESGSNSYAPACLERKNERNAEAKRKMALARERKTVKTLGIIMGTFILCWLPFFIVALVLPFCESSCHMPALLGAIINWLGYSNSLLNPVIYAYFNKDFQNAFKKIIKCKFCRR
- test-summary: Screening: competitive binding test to 5-HT1A receptor using [3H]-8-OH-DPAT, rat hippocampi membrane protein
- condition-label: compound 10^-7 mol/L, [3H]-8-OH-DPAT 1.28 nM, read-out: Inhibition percent (I %), competitive binding to 5-HT1A receptor
Could you label it Yes if measured inhibition at 0.1 µM is 60% or higher, and No otherwise?

Field: example entries. Status: answers known.
>>> group_label("O=c1ccccn1CC1(O)CCN(Cc2ccc(F)cc2)CC1")
"No"
>>> group_label("O=c1ccccn1CC1(O)CCN(Cc2ccccc2F)CC1")
"No"
>>> group_label("O=c1ccc(Br)cn1CC1(O)CCN(Cc2ccccc2)CC1")
"Yes"

Enquiry: Record O=c1ccc(Br)cn1CC1(O)CCN(Cc2ccccc2F)CC1 ; criterion: inhibition at 0.1 µM no lower than 60%. Met?
Return: Yes

Enquiry: Does the compound O=c1ccccn1CC1(O)CCN(Cc2ccccc2)CC1 have recorded inhibition at 0.1 µM that is 60% or more?
Return: Yes

====

- tgt: 5-HT1A receptor (Rattus norvegicus, UniProt P19327)
- Construct: the content of 5-HT1A receptor extracted from rat hippocampi was 5.5 mg/ml; from tissue; host or cells: Wistar rat hippocampus, membrane preparation
- test-summary: Screening: competitive binding test to 5-HT1A receptor using [3H]-8-OH-DPAT, rat hippocampi membrane protein
- condition-label: compound 10^-7 mol/L, [3H]-8-OH-DPAT 1.28 nM
- Experimental: 1.4.1 Screening of YL Series Compounds (1) Preparation of Membrane Proteins in Rat Hippocampi […] 8) Then samples were applied to 49-type glass fibre filter, vacuum suction filtered, then washed three times with 2 ml ice-cold Tris-HCl buffer solution (50 mM Tris-HCl buffer solution, 1 mM EDTA, 5 mM MgCl2, 1 mM PMSF, 0.1% NaN3, 3 μg/ml proteinase inhibitor, pH 7.4). […] The radio-activity was measured by a scintillation counter.
The entries below come with measured Inhibition percent (I %), competitive binding to 5-HT1A receptor values attached.
Please give a number only; it is taken to be in %.

Examples with their reported Inhibition percent (I %), competitive binding to 5-HT1A receptor follow.
>>> result_number("O=c1ccc(Br)cn1CC1(O)CCN(Cc2ccc(F)cc2)CC1")
2
>>> result_number("Cc1ccn(CC2(O)CCN(Cc3ccc(F)cc3F)CC2)c(=O)c1")
30
>>> result_number("O=c1ccc(Br)cn1CC1(O)CCN(Cc2ccc(F)cc2F)CC1")
19

Enquiry: I'd like to know its Inhibition percent (I %), competitive binding to 5-HT1A receptor. The compound in question is O=c1ccccn1CC1(O)CCN(Cc2ccc(F)cc2F)CC1
Return: 57

Enquiry: Inhibition percent (I %), competitive binding to 5-HT1A receptor for Cc1ccn(CC2(O)CCN(Cc3ccc(F)cc3)CC2)c(=O)c1 ?
Return: 14

Enquiry: Inhibition percent (I %), competitive binding to 5-HT1A receptor for Cc1ccn(CC2(O)CCN(Cc3ccccc3F)CC2)c(=O)c1 ?
Return: 37

Enquiry: Record request: Inhibition percent (I %), competitive binding to 5-HT1A receptor value, item Cc1ccn(CC2(O)CCN(Cc3ccccc3)CC2)c(=O)c1
Return: 25
